Recorded inhibition at 5 µM for the following molecules
# EXPERIMENTAL_TARGET: hDGAT1 (Homo sapiens)
# Construct: host or cells: Sf9 insect cells (baculovirus); microsomal preparation
# ASSAY_EXPLANATION: In-vitro DGAT1 assay (hDGAT1 microsomes from Sf9 cells, 14C oleoyl CoA, triglyceride formation)
# Assay type: biochemical
# MEASUREMENT_PARAMETERS: At 5 μM
MEASURED_METRIC: inhibition at 5 µM

> print(dat)
                                   molecule      result
1  O=C(Nc1ccc(-c2cc(C(=O)NC(Cc3ccccc3)C(=O)O)on2)cc1)Nc1ccc(F)cc1F (stereo not shown)   50 to 75%
2  CC(C)[C@H](NC(=O)c1cc(-c2ccc(NC(=O)Nc3ccccc3F)cc2F)no1)C(=O)O  75 to 100%
3  COC(=O)C(NC(=O)c1cc(-c2ccc(NC(=O)Nc3cccc(F)c3)cc2)no1)C(C)C (stereo not shown)   50 to 75%
4  O=C(O)CCCNC(=O)c1cc(-c2ccc(NC(=O)Nc3ccccc3F)cc2)no1   50 to 75%

====

# EXPERIMENTAL_TARGET: hDGAT1 (Homo sapiens, UniProt O75907)
# Construct: host or cells: Sf9 insect cells (baculovirus); microsomal preparation
# Sequence (O75907 whole entry): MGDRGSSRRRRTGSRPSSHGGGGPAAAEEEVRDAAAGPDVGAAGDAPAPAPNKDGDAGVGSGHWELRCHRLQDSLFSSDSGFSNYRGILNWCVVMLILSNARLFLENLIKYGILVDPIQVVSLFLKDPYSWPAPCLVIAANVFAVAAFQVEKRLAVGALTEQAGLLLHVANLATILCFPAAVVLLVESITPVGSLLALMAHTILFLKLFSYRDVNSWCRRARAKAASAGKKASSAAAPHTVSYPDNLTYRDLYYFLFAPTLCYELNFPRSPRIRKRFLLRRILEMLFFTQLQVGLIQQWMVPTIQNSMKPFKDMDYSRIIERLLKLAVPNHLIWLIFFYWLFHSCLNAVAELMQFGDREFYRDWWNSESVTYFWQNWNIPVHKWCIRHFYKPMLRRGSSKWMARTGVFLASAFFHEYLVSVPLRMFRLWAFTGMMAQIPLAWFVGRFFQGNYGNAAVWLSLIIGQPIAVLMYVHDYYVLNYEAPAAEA
# ASSAY_EXPLANATION: In-vitro DGAT1 assay (hDGAT1 microsomes from Sf9 cells, 14C oleoyl CoA, triglyceride formation)
# Assay type: biochemical
# MEASUREMENT_PARAMETERS: At 10 μM
MEASURED_METRIC: inhibition at 10 µM

> print(dat)
                                   compound      result
1  CC(C)C[C@H](NC(=O)c1onc(-c2ccc(Nc3nc4ccc(F)cc4s3)cc2)c1-c1ccccc1)C(=O)O [Example 95]    0 to 50%
2  CC(C)C[C@H](NC(=O)c1cc(-c2ccc(Nc3nc4ccc(F)cc4s3)cc2)no1)C(=O)O [Example 47]  75 to 100%
3  COC[C@H](NC(=S)c1cc(-c2cccc(Nc3nc4ccc(F)cc4s3)c2)no1)C(=O)O [Example 31]    0 to 50%
4  CC(C)[C@@H](NC(=S)c1cc(-c2ccc(Nc3nc4ccc(F)cc4s3)cc2)no1)C(=O)O [Example 43]   50 to 75%

====

# EXPERIMENTAL_TARGET: hDGAT1 (Homo sapiens)
# Construct: host or cells: Sf9 insect cells (baculovirus); microsomal preparation
# ASSAY_EXPLANATION: In-vitro DGAT1 assay (hDGAT1 microsomes from Sf9 cells, 14C oleoyl CoA, triglyceride formation)
# Assay type: biochemical
# MEASUREMENT_PARAMETERS: At 1 μM
Listed next: entries and their corresponding inhibition at 1 µM.
MEASURED_METRIC: inhibition at 1 µM

> print(dat)
                                    molecule    experimental.target     measured.metric      result
 1  CC(C)[C@@H](NC(=O)c1cc(-c2ccc(NC(=O)Nc3cccc(C#N)c3)cc2)no1)C(=O)O  hDGAT1 (Homo sapiens)  inhibition at 1 µM   50 to 75%
 2  Cc1ccc(NC(=O)Nc2ccc(-c3nc(C(=O)N[C@H](C(=O)O)C(C)C)cs3)cc2)cc1C  hDGAT1 (Homo sapiens)  inhibition at 1 µM    0 to 50%
 3  COc1ccc(NC(=O)Nc2ccc(-c3cc(C(=O)N[C@H](C(=O)O)C(C)C)on3)cc2)c(OC)c1  hDGAT1 (Homo sapiens)  inhibition at 1 µM   50 to 75%
 4  CC(C)C(NC(=O)c1cc(-c2ccc(OCc3ccccc3)cc2)no1)C(=O)O (stereo not drawn)  hDGAT1 (Homo sapiens)  inhibition at 1 µM    0 to 50%
 5  COC(=O)[C@H](NC(=S)c1cc(-c2ccc(NC(=O)Nc3ccc(C)cc3)cc2)no1)C(C)C  hDGAT1 (Homo sapiens)  inhibition at 1 µM    0 to 50%
 6  CC(C)[C@H](NC(=O)c1cc(-c2ccc(NC(=O)Nc3c(Cl)cccc3C(F)(F)F)cc2)no1)C(=O)O  hDGAT1 (Homo sapiens)  inhibition at 1 µM    0 to 50%
 7  COC(=O)[C@H](C(C)C)N(C)C(=O)c1cc(-c2ccc(NC(=O)NC3CCCCC3)cc2)no1  hDGAT1 (Homo sapiens)  inhibition at 1 µM   50 to 75%
 8  O=C(Nc1ccc(-c2cc(C(=O)N3CCC[C@@H]3C(=O)O)on2)cc1)Nc1ccccc1F  hDGAT1 (Homo sapiens)  inhibition at 1 µM   50 to 75%
 9  CC(C)[C@@H](NC(=O)c1cc(-c2ccc(NS(=O)(=O)c3c(F)cccc3F)cc2)no1)C(=O)O  hDGAT1 (Homo sapiens)  inhibition at 1 µM    0 to 50%
10  CC(C)[C@@H](NC(=O)c1cc(-c2ccc(NC(=O)Nc3ccccc3F)cc2)no1)C(=O)O  hDGAT1 (Homo sapiens)  inhibition at 1 µM   50 to 75%
11  CC(C)[C@H](NC(=O)c1cc(-c2ccc(NC(=O)Nc3cc(F)cc(F)c3)cc2)no1)C(=O)O  hDGAT1 (Homo sapiens)  inhibition at 1 µM  75 to 100%
12  CC(C)[C@@H](C(=O)O)N(C)C(=O)c1cc(-c2ccc(NC(=O)Nc3ccccc3F)cc2)no1  hDGAT1 (Homo sapiens)  inhibition at 1 µM   50 to 75%
13  COC(=O)[C@@H](NC(=O)c1cc(-c2ccc(NC(=O)Nc3ccc(F)c(F)c3)cc2)no1)C(C)C  hDGAT1 (Homo sapiens)  inhibition at 1 µM   50 to 75%
14  Cc1ccc(NC(=O)Nc2ccc(-c3cc(C(=O)NC(C(=O)O)C(C)C)on3)cc2)cc1F (stereo not drawn)  hDGAT1 (Homo sapiens)  inhibition at 1 µM  75 to 100%
15  CC(C)[C@H](NC(=O)c1csc(-c2ccc(NC(=O)Nc3cccc(C(F)(F)F)c3)cc2)n1)C(=O)O  hDGAT1 (Homo sapiens)  inhibition at 1 µM    0 to 50%

Where do the numbers come from? From patent US8835428B2.
